Hello, the source for this data is paper PMC8151276, in case you need it.

target_or_system: CCR10 (Homo sapiens)
Construct: purchased Promega (in-house HiBiT-GPCR construct library, NanoBRET)
Sequence (P46092 whole entry): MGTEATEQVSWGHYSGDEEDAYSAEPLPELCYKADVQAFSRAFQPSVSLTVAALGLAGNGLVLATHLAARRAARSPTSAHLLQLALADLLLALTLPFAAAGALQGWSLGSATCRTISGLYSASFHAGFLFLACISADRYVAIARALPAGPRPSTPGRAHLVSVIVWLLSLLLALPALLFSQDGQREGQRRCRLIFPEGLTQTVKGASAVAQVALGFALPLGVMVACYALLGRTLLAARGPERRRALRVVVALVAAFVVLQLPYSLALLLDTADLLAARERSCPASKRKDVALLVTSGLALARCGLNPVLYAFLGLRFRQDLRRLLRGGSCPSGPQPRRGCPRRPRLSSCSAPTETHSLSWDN
experimental_protocol: NanoBRET screen HiBiT-CCR10 in HEK293
Format: binding
particulars: CCR10; tracer 0.1μM
NanoBRET Fold Response values by entry

chemical_string | NanoBRET Fold Response
N#CN=C(NCCCOc1cccc(CN2CCCCC2)c1)NCCNC(=O)CCOCCOCCOCCOCCNC(=O)CCc1ccc2n1[B-](F)(F)[N+]1=C(c3ccc[nH]3)C=CC1=C2 | 1.00
COc1ccccc1N1CCN(CCCCN2C(=O)c3ccc(CNC(=O)CCOCCNC(=O)c4ccc(CNC(=O)CCc5ccc6n5[B-](F)(F)[N+]5=C(c7ccc[nH]7)C=CC5=C6)cc4)cc3C2=O)CC1 | 1.04
COc1ccccc1N1CCN(CCCCN2C(=O)c3ccc(CNC(=O)CCOCCOCCOCCOCCNC(=O)CCc4ccc5n4[B-](F)(F)[N+]4=C(c6ccc[nH]6)C=CC4=C5)cc3C2=O)CC1 | 0.97
O=C(CCc1ccc2n1[B-](F)(F)[N+]1=C(c3ccc[nH]3)C=CC1=C2)NCCOCCOCCNC(=O)OCCOCCN1CCN(C2=Nc3ccccc3Sc3ccccc32)CC1 | 1.01
O=C(CCOCCOCCOCCOCCNC(=O)CCc1ccc2n1[B-](F)(F)[N+]1=C(c3ccc[nH]3)C=CC1=C2)NCCCN1CCN(C2=Nc3ccccc3Oc3ccc(Cl)cc32)CC1 | 1.04
